# experimentNotes: CD spectroscopy, secondary structure content (DichroWeb)
# Assay type: physicochemical
# settings: CD in water, peptide 50 μM, 25 °C, DichroWeb
Bridge positions count the residues as written; N and C are the ends. Square brackets hold non-standard residues; d marks the D form. Peptide text beside a SMILES is read from it.
recordedMetric: random
A complete answer gives the number and then names the unit.

The cases that follow already have their random on record.
| molecule | recordedMetric | testValue |
| --- | --- | --- |
| CC[C@H](C)[C@H](NC(=O)[C@H](CCCNC(=N)N)NC(=O)[C@@H]1CCCCn2cc(nn2)C[C@H](NC(=O)[C@H](Cc2ccccc2)NC(=O)[C@H](Cc2c[nH]c3ccccc23)NC(=O)[C@@H]2CCCN2C(=O)[C@@H](NC(=O)[C@@H](N)Cc2ccccc2)C(C)C)C(=O)N[C@@H](CCCCN)C(=O)N[C@@H](Cc2ccccc2)C(=O)NC(CC(C)C)C(=O)N1)C(=O)N[C@@H](CC(C)C)C(N)=O (stereo in doubt) [compound 17] | random | 49% |
| CC[C@H](C)[C@H](NC(=O)[C@H](CCCNC(=N)N)NC(=O)[C@@H]1CCCCNC(=O)CC[C@H](NC(=O)[C@H](Cc2ccccc2)NC(=O)[C@H](Cc2c[nH]c3ccccc23)NC(=O)[C@@H]2CCCN2C(=O)[C@@H](NC(=O)[C@@H](N)Cc2ccccc2)C(C)C)C(=O)N[C@@H](CCCCN)C(=O)N[C@@H](Cc2ccccc2)C(=O)N[C@H](CC(C)C)C(=O)N1)C(=O)N[C@@H](CC(C)C)C(N)=O [compound 24] (H-FVPWFEKF[dL]KRIL-NH2; lactam 6-10) | random | 50% |

Proceeding to the next molecule to report its random.
Reported random for CC[C@H](C)[C@H](NC(=O)[C@H](CCCNC(=N)N)NC(=O)[C@]1(C)CCCC=CCCC[C@](C)(NC(=O)[C@H](Cc2ccccc2)NC(=O)[C@H](Cc2c[nH]c3ccccc23)NC(=O)[C@@H]2CCCN2C(=O)[C@@H](NC(=O)[C@@H](N)Cc2ccccc2)C(C)C)C(=O)N[C@@H](CCCCN)C(=O)N[C@@H](Cc2ccccc2)C(=O)N[C@H](CC(C)C)C(=O)N1)C(=O)N[C@@H](CC(C)C)C(N)=O [compound 25] was 41%

Source listed as paper PMC8389922.
